The measured values listed here are drawn from PubChem BioAssay (NCI).

Listed molecules paired with reported TGI
test system: NCI-H522 lung; experiment: NCI tumour cell line growth inhibition, 48 h
measurement-name: TGI

molecule="Cc1ccc(NC(=O)OCC(COc2ccc(Cl)cc2)OC(=O)Nc2ccc(C)cc2)cc1 (stereo not given)" result="> 100 µM"
molecule=COc1cc(C=O)cc(/C=N/N=C/c2ccccc2O)c1O result="> 100 µM"
molecule=COc1ccc2c(c1)CC[C@@H]1[C@@H]2CC[C@]2(C)C(=O)/C(=C/c3ccc(C#N)cc3)C[C@@H]12 result="> 100 µM"
molecule=O=C(Nc1ccccc1-c1nn(CO)c(=S)n(CO)c1=O)C(F)(F)F result="> 100 µM"
molecule="COC(=O)C(C(=O)C(=O)Nc1nc2ccc([N+](=O)[O-])cc2s1)c1nc2ccc(Cl)cc2[nH]c1=O (stereo not given)" result="> 100 µM"
molecule=N#Cc1nn(C(N)=O)c(N)c1C#N result="> 100 µM"
molecule="COP(C)(=O)C1=CCN(C(=O)OCC[Si](C)(C)C)CC1 (stereo not given)" result="> 100 µM"
molecule="N#CCN1c2ccccc2CCC1Cl (stereo not given)" result="> 10 µM"
molecule="CC1=CN(c2ccccc2)S2=C1c1sc3c(c1N2c1ccc(Br)cc1)CCCC3 (stereo not given)" result="> 100 µM"
molecule=O=[N+]([O-])O result="> 100 µM"
molecule="COc1ccc(C2N(c3ccc(F)c([N+](=O)[O-])c3)C(=O)N3C(c4ccc(OC)cc4)N(c4ccc(F)c([N+](=O)[O-])c4)C(=O)N23)cc1 (stereo not given)" result="> 100 µM"
molecule=Cc1cccc(NC(=O)/C=C/c2ccccc2)c1C result="> 100 µM"
molecule="O=C(O)C1[C@@H](C(=O)O)C1(Br)CBr (stereo not given in full)" result="> 100 µM"
molecule="N=[N+]=NC1C(O)C(CO)OC1n1cnc2c(N)ncnc21 (stereo not given)" result="> 100 µM"
molecule=S=C(/C=C1\SC(=Nc2ccccc2)C(=Nc2ccccc2)N1c1ccccc1)Nc1ccccc1 result="> 100 µM"

* * *

Listed compounds paired with reported TGI
tested on: SK-MEL-5 melanoma; assay: NCI tumour cell line growth inhibition, 48 h
measurement-name: TGI

compound=O=CNCCCN1CCN(CCCNC=O)CC1 test_target="SK-MEL-5 melanoma" measurement_name=TGI result="> 100 µM"
compound=O=C(O)c1cc2ccccc2c(N=Nc2ccc(S(=O)(=O)O)cc2)c1O test_target="SK-MEL-5 melanoma" measurement_name=TGI result="> 100 µM"
compound=CC(=O)c1nc2ccccc2n1CCN1CCN(C)CC1 test_target="SK-MEL-5 melanoma" measurement_name=TGI result="> 100 µM"
compound=N#Cc1nn(C(N)=O)c(N)c1C#N test_target="SK-MEL-5 melanoma" measurement_name=TGI result="> 100 µM"
compound=O=C(CCCn1cnc([N+](=O)[O-])n1)NCCCn1ccnc1[N+](=O)[O-] test_target="SK-MEL-5 melanoma" measurement_name=TGI result="> 100 µM"
compound=Cn1ncc2c(Sc3ccc(Cl)cc3)ncnc21 test_target="SK-MEL-5 melanoma" measurement_name=TGI result="> 100 µM"
compound="C=CCCC1CCCNC1=S (configuration not stated)" test_target="SK-MEL-5 melanoma" measurement_name=TGI result="> 100 µM"
compound="NC(N)=N/N=C(/CC1OC(=O)c2ccccc21)c1ccc2ccccc2c1 (configuration not stated)" test_target="SK-MEL-5 melanoma" measurement_name=TGI result="35.8 µM"
compound="CC(C)C1=C(O)C2=C(C(=O)C1=O)C1(C)CCCC(C)(C)C1CC2O (configuration not stated)" test_target="SK-MEL-5 melanoma" measurement_name=TGI result="5.23 µM"
compound=CN(C)c1ccc(/C=C/c2nc3ccccc3s2)cc1 test_target="SK-MEL-5 melanoma" measurement_name=TGI result="> 100 µM"
compound=COc1ccc2c(c1)[n+]([O-])c(-c1c(Cl)cccc1Cl)c(N)[n+]2[O-] test_target="SK-MEL-5 melanoma" measurement_name=TGI result="42.9 µM"
compound="CCC(Cc1cnc2nc(N)nc(N)c2n1)c1ccc(C(=O)NC(CCC(=O)O)C(=O)O)cc1 (configuration not stated)" test_target="SK-MEL-5 melanoma" measurement_name=TGI result="> 100 µM"
compound="CC1(C)SC2C(NC(=O)C(C(=O)O)c3ccccc3)C(=O)N2C1C(=O)O (configuration not stated)" test_target="SK-MEL-5 melanoma" measurement_name=TGI result="> 100 µM"
compound="CS(=O)(=O)N1CC(CI)c2ccc(O)cc21 (configuration not stated)" test_target="SK-MEL-5 melanoma" measurement_name=TGI result="3.26 µM"
compound=COc1ccc2nc(NNC(=O)c3cnccn3)c3cccn3c2c1 test_target="SK-MEL-5 melanoma" measurement_name=TGI result="4.39 µM"
compound=COc1cc(C=O)cc(/C=N/N=C/c2ccccc2O)c1O test_target="SK-MEL-5 melanoma" measurement_name=TGI result="> 100 µM"
compound="CC(=O)CC1(OC(=O)C2C(C=C(C)C)C2(C)C)C(=O)Nc2ccccc21 (configuration not stated)" test_target="SK-MEL-5 melanoma" measurement_name=TGI result="> 100 µM"

* * *

system: U251 CNS; assay: NCI tumour cell line growth inhibition, 48 h
measurement-name: TGI

compound="COc1ccc(C2N(c3ccc(F)c([N+](=O)[O-])c3)C(=O)N3C(c4ccc(OC)cc4)N(c4ccc(F)c([N+](=O)[O-])c4)C(=O)N23)cc1 (configuration not stated)" result="> 100 µM"
compound="COc1cc(C2=NNC(c3ccc(N(C)C)cc3)C2)cc(OC)c1OC (configuration not stated)" result="> 100 µM"
compound=COC(=O)/C(C#N)=C(\Nc1ccccc1)N1CCCC1 result="> 100 µM"
compound="COC(=O)C(CC(=O)c1ccccc1)c1ccccc1NC(C)=O (configuration not stated)" result="> 100 µM"
compound=Cc1cc2c([nH]1)CSc1cc(S(=O)(=O)c3ccccc3)c(=O)[nH]c1-2 result="> 100 µM"
compound="O=C(O)C1(c2ccccc2)CCCNCC1 (configuration not stated)" result="> 100 µM"
compound="O=P(O)(O)C(NCC(O)CN1CCOCC1)P(=O)(O)O (configuration not stated)" result="> 100 µM"

* * *

system: SNB-75 CNS; assay: NCI tumour cell line growth inhibition, 48 h
measurement-name: TGI

compound="CC1(C)SC2C(NC(=O)C(C(=O)O)c3ccccc3)C(=O)N2C1C(=O)O (stereo not given)" result="> 100 µM"
compound=COc1cc(Br)cc2cc(C3=CSC4=NCCN34)c(=O)oc12 result="43.3 µM"
compound=C/C(=N\O)c1ccc2cc(Br)c3ccccc3c2c1 result="> 100 µM"
compound=C[C@H]1COC(c2ccccn2)=N1 result="> 100 µM"
compound=O=C(NCCc1[nH]nc2c1C(=O)C=C(Nc1ccccc1)C2=O)OCc1ccccc1 result="> 100 µM"
compound=[O-]c1ccccc1/C=N/c1nccs1.[O-]c1ccccc1/C=N/c1nccs1.[O]=[U+2]=[O] result="> 100 µM"
compound="CCC12CCCN3CCc4c(n(c5ccccc45)C(O)(C(=O)OC)C1)C32 (stereo not given)" result="> 100 µM"
compound=NN/C(=N\S(=O)(=O)c1cc2ccccc2o1)Nc1ccc(Cl)cc1 result="85.8 µM"
compound=CN(C)C=Nc1ccc2[nH]c3ccccc3c2c1 result="> 100 µM"
compound=CCN=C1Nc2ccccc2-n2c(nn3nc4ccccc4c23)N1CC result="> 100 µM"
compound=COC(=O)c1cc(-c2ccc(OC)c(OC)c2)oc1-c1ccc(OC)c(OC)c1 result="> 100 µM"
compound="O=C(N/S(=N/S(=O)(=O)c1ccc(Br)cc1)C(Cl)(Cl)Cl)c1ccccc1 (stereo not given)" result="> 100 µM"
compound=C=C(C)C(=O)Oc1ccc(N=Nc2ccc(C)cc2)ccc1=O result="10.3 µM"
compound=N#C/C(=C\c1cc(F)cc(F)c1)c1ccccn1 result="> 100 µM"
compound=C/C=C/[C@@H]1[C@H]2C(=O)[C@]3(Cl)[C@@H](/C=C/C)[C@@H]3C(=O)[C@@]12Cl result="> 100 µM"

* * *

Listed molecules paired with reported TGI
tested on: 786-0 renal; test: NCI tumour cell line growth inhibition, 48 h
measurement-name: TGI

molecule="COP(C)(=O)C1=CCN(C(=O)OCC[Si](C)(C)C)CC1 (stereo not given)" measurement_name=TGI result="> 100 µM"
molecule="CC1CSC(=S)N1C(=O)N1C(=S)SCC1C (stereo not given)" measurement_name=TGI result="53.6 µM"
molecule=COc1ccc(/C=C(\C#N)c2ccc(OC)cc2)cc1 measurement_name=TGI result="> 100 µM"
molecule="NC1(C(=O)O)CCCC1C(=O)O (stereo not given)" measurement_name=TGI result="> 100 µM"
molecule="CCOC(=O)NC1C2CC(=O)C(O2)C1OCc1ccccc1 (stereo not given)" measurement_name=TGI result="> 100 µM"
molecule="CNc1ccc(C(=O)CC(O)CCC(C)C2OC(=O)CC(O)CC(=O)CC(O)CC(O)CC(O)CC(O)CC3(O)CC(O)C(C(=O)NCCN(C)C)C(CC(OC4OC(C)C(O)C(NC(=O)CN5CCN(CCO)CC5)C4O)/C=C/C=C/C=C/C=C\\C=C/C=C/C=C/C2C)O3)cc1 (stereo not given)" measurement_name=TGI result="> 50 µM"
molecule=CC(C)(/C=N\O)NO measurement_name=TGI result="> 10 µM"
molecule=O=C(N/N=C(/COc1ccccc1Cl)N=Cc1cccnc1)c1ccncc1 measurement_name=TGI result="> 100 µM"
molecule="COCN1C(=O)C2CC(/C=C/C(N)=O)=CN2C(=O)c2ccccc21 (stereo not given)" measurement_name=TGI result="> 100 µM"
molecule="COc1cc2c(c(OC)c1OC)-c1cccc(=O)cc1C(NC(C)=O)CC2 (stereo not given)" measurement_name=TGI result="> 63.1 µM"
